assay: soluble on expression in E. coli; label from the status in PepcDB or PDB records
ASSAY METRIC: soluble on expression in E. coli

Field: example entries. Status: answers known.
| SEQUENCE STRING | soluble on expression in E. coli |
| --- | --- |
| MGSDKIHHHHHHMPFQQGLLATPVPAHARHLFFTLQSPEALPAALDALLPQVDGKQLLLGVGAPLAKALGREIPGLRPFPLLDAAVENPSTQHALWLWLRGDERGDLLLRTQALEQALAPALSLADSVDGFLHRGGHDLTGYEDGTENPTDEEAVQAAIAADGSSFAAFQLWKHDLQYFKSLPQADQDNIIGRRLSDNEELDDAPASAHVKRTAQESFEPEAFMVRRSVSWADQRGAGLAFVALGKSFEAFEVQLRRMSGLEDGIIDGLYRFSRPLTGGYYWCPPMSETGVDLSPLLRA | not soluble |
| MAHHHHHHMGTLEAQTQGPGSMVNWNALRSKAIEVSRHAYAPYSGFPVGAAALVDDGRTVTGCNVENVSYGLGLCAECAVVCALHSGGGGRLVALSCVGPDGGVLMPCGRCRQVLLEHGGPELLIDHAHGPRPLRELLPDAFGPDDLGRR | soluble |
| MRDMGEPKLKIVAMPSDTNPAGNIFGGWILSQIDLAGAIAARELSPERVVTISMDKVVFKEPVFIGDIISCYSKVVNVGNTSISVEVEVTAQRVDSQGCTSCINVTSALVTYVSVTRDGKKNPISEELKRIHGFLNALEHHHHHH | soluble |
| GPGSMSSSDQFLVDELRSRLKRRRADIVRYLDGLFYEDCRRIIECVSELDSDNLFLRNPSSLPDYAQHVTRPMYWELIQRKLQRYEYRAAADFMADMRAVVNNCYLYNGIQAPASKLARAIEVLMEDRFVTELRAAPVQPAEVK | not soluble |
| MNRDIGKNAERELVSILRGEGFNAVRIPTSNSSPNPLPDIFATKGNTLLSIECKSTWENKVKVKEHQVRKLLDFLSMFTMKGVPLIAIKFKQVHEWRVLVPEKAEDIIVTIDNSIPIEDLFKILEKRIEEKILTP | soluble |
| MAMVPAKSLATTCVASKRMMWQIPEKWTMEEASTVPCVYSTVYYALVVRGQMKKGEKILIHAGSGGVGQAAISVALAHGLTVFTTVGSKEKREFLLKRFPKLQERNIGNSRDTSFEQLVLRETKGRGVDLVLNSLSEEKLQASIRCLGLNGRFLEIGKFDLSNNSPLGMSVFLKNTSFHGILLDSVMEGEEEMQNQVVSLVAEGIKTGAVVPLPTSVFNDQQVEQAFRFMASGKHIGKVVIK | soluble |
| MGSDKIHHHHHHMKGKHKIVVKNNRLHYEFEIKRNITIIKGDSATGKTTLINMIRQFANLGNASGIEIECDAPCTVLEGNLWQMLLKNLSGNIIFIDEENQFIRQQEFAELVKASDNYFVIITRENLYNLPYSVEEIYGLYSSGKYQNTKQIYQEMYHIYPLNQDLSCKPDKIIVEDTNSGYEYFKAISKEKNIVCESAGGKTKIFAMLEQLKAETESICVIADGAAIGPEMDALYKMSVEKGNIKLYLPESFEWIILSSELLEDKEIKDIIDKPENYIESQEYFSWERFFTKLLVDKTAGTYLKYQKGKLNPTYLHEKNKNIILKNIKNSIDF | not soluble |
| FTANIKGLTQASRNANDGISIAQTTEGALNEINNNLQRVRELAVQSANSTNSQSDLDSIQAEITQRLNEIDRVSGQTQFNGVKVLAQDNTLTIQVGANDGETIDIDLKQINSQTLGLDTLNVQQKYKVSDTAATVTGYADTTIALDNSTFKASATGLGGTDQKIDGDLKFDDTTGKYYAKVTVTGGTGKDGYYEVSVDKTNGEVTLAGGATSPLTGGLPATATEDVKNVQVANADLTEAKAALTAAGVTGTASVVKMSYTDNNGKTIDGGLAVKVGDDYYSATQNKDGSISINTTKYTADDGTSKTALNKLGGADGKTEVVSIGGKTYAASKAEGHNFKAQPDLAEAAATTTENPLQKIDAALAQVDTLRSDLAAVQNRFNSAITNLGNTVNNLTSAR | soluble |

get_value(item= SGCGGSRADAIEPRYYESWTRETESTWLTYTDSDAPPSAAAPDSGPEAGGLHSGMLEDGLPSNGVPRSTAPGGIPNPEKKTNCETQCPNPQSLSSGPLTQKQNGLQTTEAKRDAKRMPAKEVTINVTDSIQQMDRSRRITKNCVN , readout=soluble on expression in E. coli) returns soluble

Lab note: FASNWVSHTHEVIQTIDTCLYDIVEIESRQRFYLIRGSSSQLMADIDDMKSTLQLNLDKLEQLTRDNPEQNKRIHRFIDLVKQRLNLLNQLVQLKGSGKLDTQEGYDLLNQSQDMSHQVKSLGQEIKSVELVLLSERNTG gave soluble on expression in E. coli of not soluble

Short answer for MAASTFFIPSVNVIGADSLTDAMNMMADYGFTRTLIVTDNMLTKLGMAGDVQKALEERNIFSVIYDGTQPNPTTENVAAGLKLLKENNCDSVISLGGGSPHDCAKGIALVAANGGDIRDYEGVDRSAKPQLPMIAINTTAGTASEMTRFCIITDEARHIKMAIVDKHVTPLLSVNDSSLMIGMPKSLTAATGMDALTHAIEAYVSIAATPITDACALKAVTMIAENLPLAVEDGSNAKAREAMAYAQFLAGMAFNNASLGYVHAMAHQLGGFYNLPHGVCNAVLLPHVQVFNSKVAAARLRDCAAAMGVNVTGKNDAEGAEACINAIRELAKKVDIPAGLRDLNVKEEDFAVLATNALKDACGFTNPIQATHEEIVAIYAAR : soluble on expression in E. coli was not soluble

Form field soluble on expression in E. coli, entry MGSDKIHHHHHHMEDILKYLQVHVPFRMLEGGFLDTVIAKGISPEIGFDCAILDATGKDRFREVADRFSDAGLRVTFHAPFMDLRPGAIDPRIREVSRERIQQVFDLVPLFRPRTIVCHPSFDSRYYVSSERKWLENSTLTWSTFVEQAAEFDTLLLLENVYEKEPRQFVHLLTALDSLRVRFCLDTGHCNAFSDAPLSSWLEELGTFLGEVHLHDNDGSRDAHLPIGEGNFPFMELFGFLKTKVNRPILTLEAHSADHLSRTLETLRKNRLFGLI : not soluble
